# Experimental Target: T1, human TREM2 Fc fusion (entire TREM2 ECD; only one Fc arm fused to TREM2) (human, UniProt Q9NZC2 19-174)
# T1 construct: also called huTREM2-Fc; recombinant hTREM2
# T1 sequence: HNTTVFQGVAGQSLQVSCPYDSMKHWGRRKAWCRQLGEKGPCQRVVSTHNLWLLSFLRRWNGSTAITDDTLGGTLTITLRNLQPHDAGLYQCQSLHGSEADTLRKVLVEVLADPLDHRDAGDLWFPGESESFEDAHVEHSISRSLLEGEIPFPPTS
# Test: BLI, Fab, monovalent
// boundary case: Kd equal to 200 nM maps to not met; strictly smaller maps to met

# input Consider AL2p-h76 (antibody, human IgG1, V domains shown, humanized, human IgG1; Fab and IgG formats under one id) VH: QVQLVQSGAEVKKPGASVKVSCKASGYAFSSSWMNWVRQAPGQRLEWIGRIYPGDGDTNYAQKFQGRATITADTSASTAYMELSSLRSEDTAVYFCARLLRNQPGESYAMDYWGQGTLVTVSS VL: DVVMTQSPDSLAVSLGERATINCRSSQSLVHSNGYTYLHWYQQKPGQSPKLLIYKVSNRFSGVPDRFSGSGSGTDFTLTISSLQAEDVAVYYCSQSTRVPYTFGGGTKVEIK . Does its Kd lie strictly below 200 nM?
# output met

# input Consider AL2p-h33 (antibody, human IgG1, V domains shown, humanized, human IgG1; Fab and IgG formats under one id) VH: QVQLVQSGAEVKKPGSSVKVSCKASGYAFSSSWMNWVRQAPGQGLEWIGRIYPGDGDTNYAQKFQGRATLTADTSTTTAYMELSSLRSEDTAVYFCARLLRNQPGESYAMDYWGQGTLVTVSS VL: DVVMTQTPLSLSVTPGQPASISCRSSQSLVHSNGYTYLHWYLQKPGQSPQLLIYKVSNRFSGVPDRFSGSGSGTDFTLKISRVEAEDLGVYFCSQSTRVPYTFGQGTKLEIK . Does its Kd lie strictly below 200 nM?
# output not met

# input Consider AL2p-h42 (antibody, human IgG1, V domains shown, humanized, human IgG1; Fab and IgG formats under one id) VH: QVQLVQSGAEVKKPGASVKVSCKASGYAFSSSWMNWVRQAPGQRLEWMGRIYPGDGDTNYAQKFQGRVTITRDTSASTAYMELSSLRSEDTAVYYCARLLRNQPGESYAMDYWGQGTLVTVSS VL: DVVMTQTPLSLSVTPGQPASISCRSSQSLVHSNGYTYLHWYLQKPGQSPQLLIYKVSNRFSGVPDRFSGSGSGTDFTLKISRVEAEDVGVYYCSQSTRVPYTFGQGTKLEIK . Does its Kd lie strictly below 200 nM?
# output met

# input Consider AL2p-h50 (antibody, human IgG1, V domains shown, humanized, human IgG1; Fab and IgG formats under one id) VH: QVQLVQSGAEVKKPGSSVKVSCKASGYAFSSSWMNWVRQAPGQGLEWMGRIYPGDGDTNYAQKFQGRVTITADESTSTAYMELSSLRSEDTAVYYCARLLRNQPGESYAMDYWGQGTLVTVSS VL: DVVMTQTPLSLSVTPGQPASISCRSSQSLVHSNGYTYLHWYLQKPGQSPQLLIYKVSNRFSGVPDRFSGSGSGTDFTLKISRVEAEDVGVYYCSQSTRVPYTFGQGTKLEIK . Does its Kd lie strictly below 200 nM?
# output met

# input Consider AL2p-h30 (antibody, human IgG1, V domains shown, humanized, human IgG1; Fab and IgG formats under one id) VH: QVQLVQSGAEVKKPGASVKVSCKASGYAFSSSWMNWVRQAPGQGLEWMGRIYPGDGDTNYAQKFQGRVTMTADTSTSTAYMELSSLRSEDTAVYYCARLLRNQPGESYAMDYWGQGTLVTVSS VL: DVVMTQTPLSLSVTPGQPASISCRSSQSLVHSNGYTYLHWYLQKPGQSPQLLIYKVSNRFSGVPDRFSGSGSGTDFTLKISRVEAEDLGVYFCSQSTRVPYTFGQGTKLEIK . Does its Kd lie strictly below 200 nM?
# output met
